- measurementTarget: T1, ADI-26924
- T1 construct: anti-CD3 antibody made in CHO cells, captured by anti-human Fc
- T1 sequence (VH, as listed by the source, chain 1 of 2): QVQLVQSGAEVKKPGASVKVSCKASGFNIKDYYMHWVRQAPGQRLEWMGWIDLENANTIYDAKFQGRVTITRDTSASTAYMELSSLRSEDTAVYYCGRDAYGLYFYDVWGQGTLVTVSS
- T1 sequence (VL, as listed by the source, chain 2 of 2): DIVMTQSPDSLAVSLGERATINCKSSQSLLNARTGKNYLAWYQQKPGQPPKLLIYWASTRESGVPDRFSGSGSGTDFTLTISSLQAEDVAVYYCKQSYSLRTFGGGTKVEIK
- protocolDescription: SPR Carterra avidity, yeast anti-ID
quantityMeasured: Kd (nM)
A number alone suffices; assume nM.

[in] Please report the recorded Kd for ADI-34137 (antibody, V domains shown, anti-ID IgG) VH: QVQLVQSGAEVKKPGSSVKVSCKASGGTFSSYAISWVRQAPGQGLEWMGGIIPIFGTANYAQKFQGRVTITADESTSTAYMELSSLRSEDTAVYYCARGAPNYYGSGGYDDGWFDPWGQGTLVTVSS VL: EIVLTQSPGTLSLSPGERATLSCRASQSVSSSYLAWYQQKPGQAPRLLIYGASSRATGIPDRFSGSGSGTDFTLTISRLEPEDFAVYYCQQFGRFPTFGGGTKVEIK .
[out] 0.19

[in] Fill blank: measured Kd of the binder ADI-34135 (antibody, V domains shown, anti-ID IgG) VH: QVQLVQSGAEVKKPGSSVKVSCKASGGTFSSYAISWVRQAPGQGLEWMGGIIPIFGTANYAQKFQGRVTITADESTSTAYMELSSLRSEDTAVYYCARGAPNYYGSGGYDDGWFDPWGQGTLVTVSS VL: EIVMTQSPGTLSLSPGERATLSCRASQSVSSSYLAWYQQKPGQAPRLLIYGASSRATGIPDRFSGSGSGTDFTLTISRLEPEDFAVYYCQQFGRYPTFGGGTKVEIK is ____.
[out] 0.14

[in] Need Kd, item ADI-34132 (antibody, V domains shown, anti-ID IgG) VH: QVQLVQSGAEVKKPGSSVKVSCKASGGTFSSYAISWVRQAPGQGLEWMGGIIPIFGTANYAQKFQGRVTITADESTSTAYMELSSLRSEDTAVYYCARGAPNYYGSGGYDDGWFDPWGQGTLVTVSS VL: DIQLTQSPSSLSASVGDRVTITCRASQSISSYLNWYQQKPGKAPKLLIYAASNLQSGVPSRFSGSGSGTDFTLTISSLQPEDFATYYCQQTLHTPITFGGGTKVEIK
[out] 0.2

[in] I am curious: what Kd value has been reported for ADI-34134 IgG (antibody, V domains shown) VH: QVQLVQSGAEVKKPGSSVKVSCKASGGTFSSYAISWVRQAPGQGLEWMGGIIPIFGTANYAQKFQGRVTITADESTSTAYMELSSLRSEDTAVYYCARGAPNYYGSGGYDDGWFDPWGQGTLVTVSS VL: EIVLTQSPGTLSLSPGERATLSCRASQSVSSDYLAWYQQKPGQAPRLLIYGASSRATGIPDRFSGSGSGTDFTLTISRLEPEDFAVYYCQQFGRVPTFGGGTKVEIK ?
[out] 20
